- TEST SYSTEM: T1, human ferroportin (SLC40A1) fused in frame with GFP, stably expressed in HEK293 cells (human, UniProt Q9NP59 1-571)
- T1 sequence (looked up): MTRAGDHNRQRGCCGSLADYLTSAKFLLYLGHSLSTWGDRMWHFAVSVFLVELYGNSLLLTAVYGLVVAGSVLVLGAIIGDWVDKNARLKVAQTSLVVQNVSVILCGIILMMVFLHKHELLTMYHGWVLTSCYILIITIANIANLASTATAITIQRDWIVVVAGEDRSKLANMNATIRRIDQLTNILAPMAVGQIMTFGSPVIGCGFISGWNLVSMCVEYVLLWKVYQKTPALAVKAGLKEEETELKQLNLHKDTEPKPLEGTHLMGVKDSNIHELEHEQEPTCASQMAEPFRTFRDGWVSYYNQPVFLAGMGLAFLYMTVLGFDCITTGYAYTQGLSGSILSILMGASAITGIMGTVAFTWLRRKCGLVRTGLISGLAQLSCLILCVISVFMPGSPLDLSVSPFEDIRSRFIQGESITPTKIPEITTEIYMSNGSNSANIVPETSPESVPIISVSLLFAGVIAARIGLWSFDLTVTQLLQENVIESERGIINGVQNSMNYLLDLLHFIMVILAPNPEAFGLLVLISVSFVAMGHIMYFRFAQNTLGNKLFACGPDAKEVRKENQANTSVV
- ASSAY: cell-based or functional assay
Non-standard residues stand in square brackets, D forms with d. Groups on a side chain read outwards from the residue. No end group written: not given here. *: point of attachment. PeptoidIsovaleric Acid = not defined here; Dip = N[C@H](C(=O)O)C(c1ccccc1)c1ccccc1; Palmitoyl = CCCCCCCCCCCCCCCC(=O)*; β3hF = N[C@H](CC(=O)O)Cc1ccccc1; Isovaleryl = CC(C)CC(=O)*; Ahx = NCCCCCC(=O)O
Listed below: FPN IC50 values for each entry.
// note: answer is a bare numeric in nM

Answered examples (4):
1. {PeptoidIsovaleric Acid}-ETH[Dip]PAIK([Ahx-Palmitoyl])[β3hF]-NH2 (reading uncertain) [PeptoidIsovaleric Acid-E-T-H-[Dpa]-P-A-I-[Lys(Ahx_Palm)]-[bhPhe]-NH2] | 1120
2. Isovaleryl-ETH[Dip]PK(Gal)IK([Ahx-Palmitoyl])[β3hF]-NH2 [Isovaleric Acid-E-T-H-[Dpa]-P-[Lys(Gal-I-[Lys(Ahx_Palm)]-[bhPhe]-NH2] | 14.3
3. Isovaleryl-KTH[Dip]PAIK([Ahx-Palmitoyl])[β3hF] [Isovaleric Acid-K-T-H-[Dpa]-P-A-I-[Lys(Ahx_Palm)]-[bhPhe]] | 126
4. Isovaleryl-K(Gal)TH[Dip]PAIK([Ahx-Palmitoyl])[β3hF]-NH2 [Isovaleric Acid-[Lys(Gal)]-T-H-[Dpa]-P-A-I-[Lys(Ahx_Palm)]-[bhPhe]-NH2] | 76

# input May I ask what FPN IC50 has been recorded for Isovaleryl-ETH[Dip]PAK(Gal)K([Ahx-Palmitoyl])[β3hF]-NH2 [Isovaleric Acid-E-T-H-[Dpa]-P-A-[Lys(Gal-[Lys(Ahx_Palm)]-[bhPhe]-NH2] ?
# output 42

# input // next record Isovaleryl-ETH[Dip]PAIK([Ahx-Palmitoyl])[dK](Gal)-NH2 [Isovaleric Acid-E-T-H-[Dpa]-P-A-I-[Lys(Ahx_Palm)]-d[Lys(Gal-NH2]
# output 181
